Each record here notes measured viability.
test-summary: Her2 expression decrease, cell viability multiplex – SKBR3 breast tumor cells, AlphaScreen, ATP viability, primary screen (AID 461);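 also: percent of carrier control wells set as 100% viability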
condition-parameters: SKBR3 Her2 protein level, 18-24 h, measured here: SKBR3 viability, ATP luminescence, at 10 µM
Respond with the bare value in %.

Examples with their reported viability follow.
> print(dat)
                                   molecule  readout.type  obs.value
1  CC1(C)CC(=O)N(CC(=O)NCc2ccccc2)c2ccccc2S1(=O)=O     viability       78.5
2  COc1cc(C2c3c(oc4ccccc4c3=O)C(=O)N2c2ccc(C)cn2)ccc1O (stereo unspecified)     viability         66
3           Cc1occc1C(=O)N1CCN(c2ncccn2)CC1     viability         87
4  COCCCNC(=O)Cn1cc2c(n1)CCC(C)C2 (stereo unspecified)     viability        112
5  COc1ccc(OCC(=O)N2CC3(C)CC2CC(C)(C)C3)cc1 (stereo unspecified)     viability         96
6                  c1ccc(-c2cn3cccnc3n2)cc1     viability        118

Give the measured viability for CC(C)CC1NC2(C(=O)N(C)c3ccccc32)C2C(=O)N(C(C)C)C(=O)C12 (stereo unspecified)
86.5

Given the molecule CCN(CC)C(=O)COC(=O)c1ccc(O)cc1 , write its reported viability.
90.5

Please indicate viability recorded for CC(=O)Nc1cccc(NC(=O)CSc2nn3c(=O)c(C)nnc3s2)c1
100

Tell me viability reported for CCN1CCN(c2nc3c(c(=O)[nH]c(=O)n3C)n2CCSc2nc3ccccc3s2)CC1
95.5

Annotate the molecule Cc1c(C)c2ccc(OC3CCCCC3=O)cc2oc1=O (stereo unspecified) with its measured viability.
100
